pIC50 values by entry
measurementDescription: Cytotoxicity against human Fibroblasts by SRB assay
Format: cell-based
assayContext: Fibroblast
On this scale, pIC50 is minus log10 of a concentration expressed in M (mol/L).

Field: example entries. Status: answers known.
compound="CO[C@H]([C@H](C)/C=C/N(C)C=O)[C@@H](C)C(=O)CC[C@H](C)[C@H](C[C@@H]1OC(=O)C[C@@H](OC(N)=O)C[C@H](C)C[C@H](O)[C@H](C)[C@@H](OC)c2coc(n2)-c2coc(n2)-c2coc(n2)/C=C/C[C@H](O)[C@H]1C)OC [KABIRAMIDE B]" measvalue=6.02
compound="CO[C@H]([C@H](C)/C=C/N(C)C=O)[C@@H](C)C(=O)CC[C@H](C)[C@H](C[C@@H]1OC(=O)C[C@@H](O)C[C@H](C)C[C@H](O)[C@H](C)[C@@H](OC)c2coc(n2)-c2coc(n2)-c2coc(n2)/C=C/C[C@H](OC)[C@H]1C)OC [KABIRAMIDE D]" measvalue=6.30
compound="CO[C@H]([C@H](C)/C=C/N(C)C=O)[C@@H](C)C(=O)CC[C@H](C)[C@H](C[C@@H]1OC(=O)C[C@@H](OC(N)=O)C[C@H](C)C[C@H](O)[C@H](C)[C@@H](OC)c2coc(n2)-c2coc(n2)-c2coc(n2)/C=C/C[C@H](OC)[C@H]1C)OC [KABIRAMIDE C]" measvalue=5.12
compound="CO[C@H]1C/C=C/c2nc(co2)-c2nc(co2)-c2nc(co2)[C@H](OC)[C@@H](C)[C@@H](O)C[C@@H](C)C[C@H](OC(N)=O)CC(=O)O[C@@H](C[C@H](OC)[C@@H](C)CCC(=O)/C(C)=C/[C@H](C)/C=C/N(C)C=O)[C@@H]1C [KABIRAMIDE G]" measvalue=5.63

We now examine a further compound.
Lookup: What pIC50 value was documented for this compound, CC[C@@]1(O)C(=O)OCc2c1cc1n(c2=O)Cc2cc3ccccc3nc2-1 ?
Found: 6.34
